Hey, just so you know, these numbers are from patent US20150164762A1.

- Tested on: BEAS-2B
- protocol description: Cell toxicity of H2O2 after EP pre-treatment (WST-8 assay)
- Format: cell-based, human
- condition description: Homo sapiens, BEAS-2B, cells pre-treated with 250 uM EP; read-out: EC50 (50% cell death concentration of H2O2)
- Procedure: Cells of the normal airway epithelial cell line BEAS-2B were seeded at a density of 1×10^5/cm^2 on a 96-well plate, and after 24 hours the medium was replaced with 0.5% FBS RPMI 1640 containing EP at final concentrations of 0, 250 and 500 μM. 24 hours after medium replacement the medium was replaced with 0.5% FBS RPMI-1640, and serially diluted H2O2 was administered (n=4). 24 hours after H2O2 administration a cell toxicity test WST-8 assay (Cell Counting Kit-8, Dojindo) was performed. […]
property label: EC50 (µM)

1. OO [H2O2, hydrogen peroxide, reference compound] : 190
